EXPERIMENTAL TARGET: 5'-nucleotidase (Homo sapiens, UniProt P21589)
Sequence (P21589 whole entry): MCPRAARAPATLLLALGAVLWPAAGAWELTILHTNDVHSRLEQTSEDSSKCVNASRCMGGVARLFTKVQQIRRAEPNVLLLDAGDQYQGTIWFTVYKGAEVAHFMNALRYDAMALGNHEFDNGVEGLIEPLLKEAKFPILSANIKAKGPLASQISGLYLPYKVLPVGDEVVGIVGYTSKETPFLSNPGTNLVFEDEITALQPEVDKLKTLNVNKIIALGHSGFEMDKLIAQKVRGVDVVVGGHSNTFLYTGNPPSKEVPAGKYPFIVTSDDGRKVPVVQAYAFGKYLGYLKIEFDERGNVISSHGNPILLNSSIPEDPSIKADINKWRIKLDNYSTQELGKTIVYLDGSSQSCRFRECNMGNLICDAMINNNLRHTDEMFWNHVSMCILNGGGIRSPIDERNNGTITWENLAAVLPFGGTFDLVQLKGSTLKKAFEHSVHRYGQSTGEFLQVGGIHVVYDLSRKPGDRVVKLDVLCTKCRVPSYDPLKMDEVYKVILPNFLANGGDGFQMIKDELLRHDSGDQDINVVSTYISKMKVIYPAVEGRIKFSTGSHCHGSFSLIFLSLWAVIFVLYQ
METHOD SUMMARY: Inhibition of CD73 in human NCI-H292 cells assessed as reduction in conversion of AMP to adenosine incubated for 30 mins by malachite green reagent based assay
Assay type: cell-based
ENDPOINT NAME: IC50 (nM)

Below are worked cases with known answers.
# input Form entry - test system: 5'-nucleotidase (Homo sapiens, UniProt P21589); read-out: IC50; compound: `Nc1ncnc2c1ncn2[C@@H]1O[C@H](COP(=O)(O)CP(=O)(O)O)[C@@H](O)[C@H]1O`
# output 23600

# input Would you mind doing `Nc1nc(Cl)nc2c1ncn2[C@H]1C[C@H](O)[C@@H](COP(=O)(O)CP(=O)(O)O)O1` as well?
# output 2000

I: Nc1nc(F)nc2c1ncn2[C@@H]1O[C@H](COP(=O)(O)CP(=O)(O)O)[C@@H](O)[C@@H]1O
II: Nc1nc(Cl)nc2c1ncn2[C@@H]1O[C@H](COP(=O)(O)CP(=O)(O)O)[C@@H](O)[C@@H]1F
# input Name the one with the greater IC50 value, either I or II as given. Your answer should be the label of the entry you select.
# output I
